Item-by-item account of IC50
System: RAW264.7
Assay: Inhibition of LPS-induced nitric oxide production in mouse RAW264.7 cells pretreated for 1 hr followed by LPS-stimulation and measured after 24 hrs by Griess assay
Format: functional, cell-based

O=c1c2c(O)cc(O)cc2oc2oc3cc(O)ccc3c12 | > 1000 nM
O=c1c(-c2ccc(O)cc2)coc2cc(O[C@@H]3O[C@H](CO[C@@H]4O[C@H](CO[C@@H]5O[C@H](CO)[C@@H](O)[C@H](O)[C@H]5O)[C@@H](O)[C@H](O)[C@H]4O)[C@@H](O)[C@H](O)[C@H]3O)cc(O)c12 | > 1000 nM
COc1cc(O[C@@H]2O[C@H](CO)[C@@H](O)[C@H](O)[C@H]2O)cc2occ(-c3ccc(O)cc3)c(=O)c12 | > 1000 nM
O=c1c(-c2ccc(O[C@@H]3O[C@H](CO)[C@@H](O)[C@H](O)[C@H]3O)cc2O)coc2cc(O)cc(O)c12 | > 1000 nM
NC(=O)NC1NC(=O)NC1=O (stereo unspecified) [ALLANTOIN] | 500 nM

Asked: Item under review: COc1cc(O)cc2occ(-c3ccc(O[C@@H]4O[C@H](CO)[C@@H](O)[C@H](O)[C@H]4O)cc3O)c(=O)c12 . Reported IC50?
Given back: 470 nM
